Assay: in vitro
Details: human, Papp, basal to apical, inhibitor (-)
Description: The seeding medium and culture medium of hiSIECs for LLI and ALI were obtained from FUJIFILM Corporation. hiSIECs were cultured according to the manufacturer’s instructions. […] Eight gut chips were divided into two groups: with and without inhibitors. […] The concentrations of drugs and/or metabolites in the transport buffer and cells were measured by LC-MS/MS. […] The apparent permeability coefficient (Papp, cm/s) was calculated using Eq. (1):1 [drawing 1] […]
Measured Quantity: Papp at 120 min (×10⁻⁶ cm/s)

molecule="Cc1cc(=O)n(-c2ccccc2)n1C [Antipyrine]" unit_label="×10⁻⁶ cm/s" result_value=13.2

----------
assay: in vitro; settings: human, Papp, apical to basal, inhibitor (+), inhibitor cocktail ketoconazole 10 µM, PSC833 5 µM, Ko143 5 µM; mean ± SD, n = 3
Measured Quantity: Papp at 120 min

smi=Cc1ncc2n1-c1ccc(Cl)cc1C(c1ccccc1F)=NC2 result_value="14.4 ×10⁻⁶ cm/s"

----------
assay: in vitro; conditions: human, Papp, basal to apical, inhibitor (-), no inhibitor; mean ± SD, n = 4; deuterium-labeled compound dosed to basal side; apical pH 6.5, basal pH 7.4
Below is a list of entries, each paired with its recorded Papp at 120 min value.
Measured Quantity: Papp at 120 min

smi=C=C[C@H]1C[N@@]2CC[C@H]1C[C@@H]2[C@@H](O)c1ccnc2ccc(OC)cc12 measured_quantity="Papp at 120 min" result_value="4.37 ×10⁻⁶ cm/s"
smi=O=C(O)c1cc(/N=N/c2ccc(S(=O)(=O)Nc3ccccn3)cc2)ccc1O measured_quantity="Papp at 120 min" result_value="6.44 ×10⁻⁶ cm/s"

----------
Below is a list of entries, each paired with its recorded efflux ratio at 120 min value.
assay: in vitro; conditions: human, with ketoconazole 10 µM, PSC833 5 µM, Ko143 5 µM (both sides)
Measured Quantity: efflux ratio at 120 min

smi=C=C[C@H]1C[N@@]2CC[C@H]1C[C@@H]2[C@@H](O)c1ccnc2ccc(OC)cc12 measured_quantity="efflux ratio at 120 min" result_value=1.12
smi=O=C(O)c1cc(/N=N/c2ccc(S(=O)(=O)Nc3ccccn3)cc2)ccc1O measured_quantity="efflux ratio at 120 min" result_value=1.97

----------
test: in vitro; conditions: human, Papp, apical to basal, inhibitor (+)
Measured Quantity: Papp at 120 min (×10⁻⁶ cm/s)

compound="Cc1cc(=O)n(-c2ccccc2)n1C [Antipyrine]" result_value=18.5
compound=C=C[C@H]1C[N@@]2CC[C@H]1C[C@@H]2[C@@H](O)c1ccnc2ccc(OC)cc12 result_value=3.88
compound=O=C(O)c1cc(/N=N/c2ccc(S(=O)(=O)Nc3ccccn3)cc2)ccc1O result_value=0.557

----------
experiment: in vitro; conditions: human, Papp, apical to basal, inhibitor (-), no inhibitor; mean ± SD, n = 4; apical pH 6.5, basal pH 7.4
Measured Quantity: Papp at 120 min

smi=Cc1ncc2n1-c1ccc(Cl)cc1C(c1ccccc1F)=NC2 result_value="11.2 ×10⁻⁶ cm/s"

----------
test: in vitro; details: human, with ketoconazole 10 µM, PSC833 5 µM, Ko143 5 µM (both sides)
Measured Quantity: Papp at 120 min

smi=C=C[C@H]1C[N@@]2CC[C@H]1C[C@@H]2[C@@H](O)c1ccnc2ccc(OC)cc12 measured_quantity="Papp at 120 min" result_value="4.37 ×10⁻⁶ cm/s"
smi=O=C(O)c1cc(/N=N/c2ccc(S(=O)(=O)Nc3ccccn3)cc2)ccc1O measured_quantity="Papp at 120 min" result_value="1.1 ×10⁻⁶ cm/s"

----------
Below is a list of entries, each paired with its recorded efflux ratio at 120 min value.
experiment: in vitro; conditions: human
Measured Quantity: efflux ratio at 120 min

smi=O=C(O)c1cc(/N=N/c2ccc(S(=O)(=O)Nc3ccccn3)cc2)ccc1O result_value=12.7
smi=C=C[C@H]1C[N@@]2CC[C@H]1C[C@@H]2[C@@H](O)c1ccnc2ccc(OC)cc12 result_value=2.02

----------
assay: in vitro; conditions: human, Efflux ratio (ER), inhibitor (+)
Measured Quantity: efflux ratio at 120 min

molecule="Cc1cc(=O)n(-c2ccccc2)n1C [Antipyrine]" result_value=0.78
